Measured values drawn from ChEMBL document CHEMBL3632609 for this set.

- System: A549
- Protocol Description: Cytotoxicity against human A549 cells assessed as cell survival after 96 hrs by sulforhodamine B assay
- Type: functional, cell-based
- Test Parameters: A549, 96 h
Measure: pEC50
Units for pEC50: none; it is -log10 of a concentration expressed in mol/L.

Worked cases, answers included:
Value of pEC50 reported for the molecule `CC1(C)CC[C@]2(C(=O)OCc3ccc(Br)cc3)CC[C@]3(C)C(=CC[C@@H]4[C@@]5(C)CC[C@H](O)[C@@](C)(CO)[C@@H]5CC[C@]43C)[C@@H]2C1` is 4.87

The reported value for `CC1(C)CC[C@]2(C(=O)OCc3cccc(Cl)c3)CC[C@]3(C)C(=CC[C@@H]4[C@@]5(C)CC[C@H](O)[C@@](C)(CO)[C@@H]5CC[C@]43C)[C@@H]2C1` in terms of pEC50 is 4.89

Memo: `CC1(C)CC[C@]2(C(=O)On3nnc4ccccc43)CC[C@]3(C)C(=CC[C@@H]4[C@@]5(C)CC[C@H](O)[C@@](C)(CO)[C@@H]5CC[C@]43C)[C@@H]2C1` , reported pEC50: 5.02

Looking up `CC1(C)CC[C@]2(C(=O)OCc3ccc([N+](=O)[O-])cc3)CC[C@]3(C)C(=CC[C@@H]4[C@@]5(C)CC[C@H](O)[C@@](C)(CO)[C@@H]5CC[C@]43C)[C@@H]2C1` , I see its pEC50 listed as 5.19

Given item `Cc1ccc(COC(=O)[C@]23CCC(C)(C)C[C@H]2C2=CC[C@@H]4[C@@]5(C)CC[C@H](O)[C@@](C)(CO)[C@@H]5CC[C@@]4(C)[C@]2(C)CC3)cc1` , the value recorded as its pEC50 is 4.86

Record summary for `CC1(C)CC[C@]2(C(=O)OCc3ccc(F)cc3)CC[C@]3(C)C(=CC[C@@H]4[C@@]5(C)CC[C@H](O)[C@@](C)(CO)[C@@H]5CC[C@]43C)[C@@H]2C1` : reported pEC50 = 5.07

Next:
# pEC50 (molecule: `CC1(C)CC[C@]2(C(=O)NCCN3CCCC3)CC[C@]3(C)C(=CC[C@@H]4[C@@]5(C)CC[C@H](O)[C@@](C)(CO)[C@@H]5CC[C@]43C)[C@@H]2C1` ) is 5.72
